- tested_system: androgen receptor (AR-LBD) (Rattus norvegicus, UniProt P15207)
- Construct: 5 μL of 2×AR-LBD/Fluoromone AL Red Complex contained in the kit; purchased Invitrogen
- Sequence (P15207 651-882 limits assumed): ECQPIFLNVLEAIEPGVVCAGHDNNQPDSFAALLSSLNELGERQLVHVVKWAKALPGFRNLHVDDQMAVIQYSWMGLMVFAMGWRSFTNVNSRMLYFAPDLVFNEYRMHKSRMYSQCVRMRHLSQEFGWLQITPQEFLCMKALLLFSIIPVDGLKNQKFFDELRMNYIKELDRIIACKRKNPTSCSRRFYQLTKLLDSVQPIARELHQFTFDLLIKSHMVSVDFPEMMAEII
- experiment: Evaluation of androgen receptor affinity (PolarScreen Androgen Receptor Competitor Assay Kit, Red; fluorescence polarization)
- particulars: 22° C. for 5 hours, relative to binding rate of 1 μM DHT, read-out: AR affinity (pEC50) (converted)
- Experimental: Evaluation of an Androgen Receptor Affinity To examine the interaction of a compound with an androgen receptor, evaluation was carried out in accordance with the following procedure using PolarScreen™ Androgen Receptor Competitor Assay Kit, Red (Invitrogen). To 2 wells each of a 384 well black plate was added 5 μL of the compound solution. […] After 5 hours of the reaction, fluorescence polarization was measured and the affinity was evaluated. […]
Lab note: anything with EC50 below 200 nM is marked T; values at 200 nM or higher are marked F.

| molecule | discrete_label |
| --- | --- |
| Cc1sc(N(Cc2cc(F)ccc2F)c2ccc(C#N)cc2)nc1C(=O)NS(C)(=O)=O [Compound 103] | T |
| Cc1sc(N(Cc2ccc(OC(F)F)cc2)c2ccc(C(F)(F)F)nc2)nc1C(=O)NS(C)(=O)=O [Compound 472] | T |
| Cc1sc(N(Cc2cccc(F)c2F)c2ccc(C#N)cc2)nc1C(=O)NS(C)(=O)=O [Compound 102] | T |
| Cc1sc(N(CCc2cccs2)c2ccc(C#N)cc2)nc1C(=O)NS(C)(=O)=O [Compound 131] | F |
| Cc1sc(N(Cc2cnc(C(F)(F)F)cn2)c2ccc(C#N)cc2)nc1C(=O)NS(C)(=O)=O [Compound 537] | F |
| Cc1sc(N(CC2CC3CCC2C3)c2ccc(C#N)cc2)nc1C(=O)NS(C)(=O)=O (stereo not shown) [Compound 447] | T |
| Cc1sc(N(Cc2cccc3nsnc23)c2ccc(C#N)cc2)nc1C(=O)NS(C)(=O)=O [Compound 437] | T |
| Cc1sc(N(Cc2ccccc2CO)c2ccc(C#N)cc2)nc1C(=O)NS(C)(=O)=O [Compound 355] | F |
| Cc1sc(N(Cc2ccc(F)cc2)[C@H]2C[C@@H]2c2ccccc2)nc1C(=O)NS(C)(=O)=O (racemic) [Compound 149] | T |
| Cc1sc(N(Cc2ccccc2)c2ccc(C#N)cc2)nc1C(=O)NS(=O)(=O)CCc1ccccc1 [Compound 391] | T |
| CC(C)c1sc(N(Cc2ccccc2)c2ccc(C#N)cc2)nc1C(=O)NS(C)(=O)=O [Compound 600] | T |
| Cc1sc(N(Cc2ccc(F)cc2)c2ccc(C#N)cc2)nc1C(=O)NS(=O)(=O)Cc1cccnc1 [Compound 122] | T |
| CCc1oc(N(CC[C@@H]2CCCC[C@H]2O)c2ccc(C#N)cc2)nc1C(=O)NS(C)(=O)=O (racemic) [Compound 629] | F |
| CS(=O)(=O)NC(=O)c1nc(N(Cc2ccc(Cl)cn2)c2ccc(C#N)cc2)sc1Br [Compound 641] | T |
| Cc1sc(N(CCc2ccc(C#N)cc2)CC2CCCCC2)nc1C(=O)NS(=O)(=O)Cc1cccnc1 [Compound 725] | T |
| COc1ccc(CN(c2ccc(C#N)cc2)c2nc(C(=O)NS(C)(=O)=O)c(Cl)s2)cc1 [Example 271] | T |
| Cc1sc(N(Cc2ncccc2OCc2ccccc2)c2ccc(C#N)cc2)nc1C(=O)NS(C)(=O)=O [Compound 490] | F |
| Cc1sc(N(Cc2ccc(F)cc2)c2ccc(C(F)(F)F)nc2)nc1C(=O)NS(C)(=O)=O [Compound 469] | T |
| COc1ccc(CCN(c2ccc(C#N)cc2)c2nc(C(=O)NS(C)(=O)=O)c(C)s2)cc1 [Compound 400] | F |
| Cc1sc(N(CCc2ccc(Cl)cc2)c2ccc(C#N)cc2)nc1C(=O)NS(C)(=O)=O [Compound 133] | T |
| Cc1sc(N(CCc2cccc3ccccc23)Cc2ccccc2)nc1C(=O)NS(C)(=O)=O [Example 314] | F |
| CCS(=O)(=O)NC(=O)c1nc(N(CCc2ccc(Cl)cc2)CC2CCCCC2)sc1C [Compound 698] | F |
| Cc1sc(N(c2ccc(C#N)cc2)[C@@H](CO)c2ccccc2)nc1C(=O)NS(C)(=O)=O [Compound 483] | F |
| Cc1sc(N(CCc2ccc(F)cc2)c2ccc(C#N)cc2)nc1C(=O)NS(C)(=O)=O [Compound 81] | T |
| COc1cccc(CCN(c2ccc(C#N)cc2)c2nc(C(=O)NS(C)(=O)=O)c(C)s2)c1 [Compound 399] | F |
| Cc1sc(N(CCc2ccc(OC(F)(F)F)cc2)Cc2ccc(Cl)cn2)nc1C(=O)NS(C)(=O)=O [Compound 512] | T |
| CS(=O)(=O)NC(=O)c1nc(N(Cc2cccc(F)c2)c2ccc(C#N)cc2)sc1Cl [Example 258] | T |
| Cc1sc(N(CCC2CCN(C(=O)OC(C)(C)C)CC2)Cc2ccccc2)nc1C(=O)NS(C)(=O)=O [Example 319] | F |
| Cc1sc(N(Cc2ccccc2)c2ccc(C#N)nc2)nc1C(=O)NS(C)(=O)=O [Compound 604] | F |
